subject of test: Disintegrin and metalloproteinase domain-containing protein 9 (Homo sapiens)
Sequence (Q13443 whole entry, the tested form may be a part): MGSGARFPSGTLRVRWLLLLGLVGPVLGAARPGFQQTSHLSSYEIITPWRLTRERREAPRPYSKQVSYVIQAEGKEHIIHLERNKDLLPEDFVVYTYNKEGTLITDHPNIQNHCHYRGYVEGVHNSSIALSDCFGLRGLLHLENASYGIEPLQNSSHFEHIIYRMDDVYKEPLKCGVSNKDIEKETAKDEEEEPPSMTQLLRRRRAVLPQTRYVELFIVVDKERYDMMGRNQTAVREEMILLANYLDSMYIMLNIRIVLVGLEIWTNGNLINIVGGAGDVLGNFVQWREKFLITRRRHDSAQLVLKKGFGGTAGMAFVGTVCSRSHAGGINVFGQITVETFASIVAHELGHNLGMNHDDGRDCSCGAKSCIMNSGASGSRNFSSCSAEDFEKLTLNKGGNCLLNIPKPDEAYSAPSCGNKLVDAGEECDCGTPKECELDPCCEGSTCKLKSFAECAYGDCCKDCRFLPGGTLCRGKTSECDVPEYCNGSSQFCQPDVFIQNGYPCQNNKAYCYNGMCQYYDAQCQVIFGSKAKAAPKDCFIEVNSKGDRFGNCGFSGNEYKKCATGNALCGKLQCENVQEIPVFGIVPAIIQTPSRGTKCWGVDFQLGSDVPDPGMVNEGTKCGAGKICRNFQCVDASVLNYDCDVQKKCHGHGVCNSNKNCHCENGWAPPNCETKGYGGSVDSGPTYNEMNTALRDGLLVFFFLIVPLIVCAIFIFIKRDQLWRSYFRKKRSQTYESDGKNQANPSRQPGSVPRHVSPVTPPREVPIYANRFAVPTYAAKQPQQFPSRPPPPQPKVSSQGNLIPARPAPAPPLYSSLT
test method notes: Inhibition of the heparin binding epidermal growth factor (HB-EGF) release from fibrosarcoma HT1080 transfectants expressing […] (AP) tagged HB-EGF stimulated by 12-O-tetradecanoylphorbol 13-acetate(TPA).
measured property: log10 of IC50 (log10 of the value in nM)
Response schema: value (number) is log10 of IC50 in units of nM.

Would you mind listing log10 of IC50 for each of the following molecules?
1. COc1ccc(P(=O)(OCCc2ccccc2)N2Cc3ccccc3CC2C(=O)NO)cc1 (stereo not given)
2. CCOP(=O)(c1ccc(F)cc1)N1Cc2ccccc2CC1C(=O)NO (stereo not given)
3. CCOP(=O)(/C=C/c1ccccc1)N1Cc2ccccc2CC1C(=O)NO (stereo not given)
4. CCOP(=O)(c1cccc(F)c1)N1Cc2ccccc2CC1C(=O)NO (stereo not given)
5. COc1ccc(P(=O)(OCCc2ccc(-c3ccccc3)cc2)N2Cc3ccccc3CC2C(=O)NO)cc1 (stereo not given)
6. CCOP(=O)(c1ccc(OC)cc1)N1Cc2ccsc2CC1C(=O)NO (stereo not given)
7. CCOP(=O)(c1ccc(-c2ccccc2)cc1)N1Cc2ccccc2CC1C(=O)NO (stereo not given)
8. COc1ccc(P(=O)(OC(C)C)N2Cc3ccccc3CC2C(=O)NO)cc1 (stereo not given)

[3.49, 2.48, 2.96, 2.92, 3.55, 2.72, 3.29, 3.35]
